Attribution: patent US20240182536A1

- MEASURED ON: T1, IL-18 binding protein (IL-18BP) (UniProt O95998 31-194)
- T1 sequence (looked up): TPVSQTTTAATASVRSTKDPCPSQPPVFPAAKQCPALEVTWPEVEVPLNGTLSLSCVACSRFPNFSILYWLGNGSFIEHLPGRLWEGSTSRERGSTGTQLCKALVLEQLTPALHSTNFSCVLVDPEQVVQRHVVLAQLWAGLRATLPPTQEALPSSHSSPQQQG
- MEASUREMENT DESCRIPTION: cell-based or functional assay
This section presents binders with their documented Ratio (-BP/+BP), DF-5000006 values.
# output: bare number, no unit

Guide cases for Ratio (-BP/+BP), DF-5000006, answers given:
| BINDER | Ratio (-BP/+BP), DF-5000006 |
| --- | --- |
| IL-18 variant G3Q, E6N (ligand) YFQKLNSKLSVIRNLNDQVLFIDQGNRPLFEDMTDSDMRDNAPRTIFIISMYKDSQPRGMAVTISVKSEKISTLSSENKIISFKEMNPPDNIKDTKSDIIFFQRSVPGHDNKMQFESSSYEGYFLASEKERDLFKLILKKEDELGDRSIMFTVQNED | 1.27 |
| IL-18 variant G3P, E6H, D54A, S55P, Q56K, T63S, N91M (ligand) YFPKLHSKLSVIRNLNDQVLFIDQGNRPLFEDMTDSDMRDNAPRTIFIISMYKAPKPRGMAVSISVKSEKISTLSSENKIISFKEMNPPDMIKDTKSDIIFFQRSVPGHDNKMQFESSSYEGYFLASEKERDLFKLILKKEDELGDRSIMFTVQNED | 1.03 |
| IL-18 variant G3P, E6K, D54Y, S55P, T63S, N91S, R104Q (ligand) YFPKLKSKLSVIRNLNDQVLFIDQGNRPLFEDMTDSDMRDNAPRTIFIISMYKYPQPRGMAVSISVKSEKISTLSSENKIISFKEMNPPDSIKDTKSDIIFFQQSVPGHDNKMQFESSSYEGYFLASEKERDLFKLILKKEDELGDRSIMFTVQNED | 0.97 |
| IL-18 variant G3E, E6G, N91M, R104A (ligand) YFEKLGSKLSVIRNLNDQVLFIDQGNRPLFEDMTDSDMRDNAPRTIFIISMYKDSQPRGMAVTISVKSEKISTLSSENKIISFKEMNPPDMIKDTKSDIIFFQASVPGHDNKMQFESSSYEGYFLASEKERDLFKLILKKEDELGDRSIMFTVQNED | 1.41 |
| IL-18 variant G3V, E6Q, T34P, D54M, S55F, N91R, R104H (ligand) YFVKLQSKLSVIRNLNDQVLFIDQGNRPLFEDMPDSDMRDNAPRTIFIISMYKMFQPRGMAVTISVKSEKISTLSSENKIISFKEMNPPDRIKDTKSDIIFFQHSVPGHDNKMQFESSSYEGYFLASEKERDLFKLILKKEDELGDRSIMFTVQNED | 4.95 |

## Input In one line, give reported Ratio (-BP/+BP), DF-5000006 of the entry IL-18 variant G3P, E6K, D54Y, S55P, Q56H, T63S, N91S, R104Q (ligand) YFPKLKSKLSVIRNLNDQVLFIDQGNRPLFEDMTDSDMRDNAPRTIFIISMYKYPHPRGMAVSISVKSEKISTLSSENKIISFKEMNPPDSIKDTKSDIIFFQQSVPGHDNKMQFESSSYEGYFLASEKERDLFKLILKKEDELGDRSIMFTVQNED .
## Output 1.02

## Input Please give measured Ratio (-BP/+BP), DF-5000006 of the following entry: IL-18 variant G3Q, E6H, D54N, S55I, T63S, N91V (ligand) YFQKLHSKLSVIRNLNDQVLFIDQGNRPLFEDMTDSDMRDNAPRTIFIISMYKNIQPRGMAVSISVKSEKISTLSSENKIISFKEMNPPDVIKDTKSDIIFFQRSVPGHDNKMQFESSSYEGYFLASEKERDLFKLILKKEDELGDRSIMFTVQNED
## Output 1.33
